target: TGFβ1 (R&D Systems); assay: SPR (Biacore T200), TGFβ amine-coupled to chip, 1:1 fit
Sequence (P01137 279-390): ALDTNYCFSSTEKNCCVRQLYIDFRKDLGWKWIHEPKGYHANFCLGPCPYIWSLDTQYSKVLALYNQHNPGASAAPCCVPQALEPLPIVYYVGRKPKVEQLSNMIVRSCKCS
pKd: −log10 of the molar value.
MEASURE: pKd

>>> measured_value("Felinized anti-TGFβ1,2,3 antibody VH6.1 - VL3 (antibody, V domains shown) VH: QVLLVQSGAEVRTPGASVKIFCKASGYGFTSNVISWVRQSPAQGLEWMGGVIPIVDIANYAQRFKGRLTLTADTSTDTAYMELSSLRSADTAMYYCASTLGLVLDAMDYWGQGTLVTVSS VL: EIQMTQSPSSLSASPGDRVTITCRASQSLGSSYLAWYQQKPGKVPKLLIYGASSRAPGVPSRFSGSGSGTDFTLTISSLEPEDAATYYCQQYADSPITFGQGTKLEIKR")
8.45
>>> measured_value("Caninized anti-TGFβ1,2,3 antibody VH4.5 - VL1 (antibody, V domains shown) VH: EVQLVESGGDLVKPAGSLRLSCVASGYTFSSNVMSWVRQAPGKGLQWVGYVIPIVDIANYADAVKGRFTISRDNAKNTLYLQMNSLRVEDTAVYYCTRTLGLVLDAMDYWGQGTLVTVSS VL: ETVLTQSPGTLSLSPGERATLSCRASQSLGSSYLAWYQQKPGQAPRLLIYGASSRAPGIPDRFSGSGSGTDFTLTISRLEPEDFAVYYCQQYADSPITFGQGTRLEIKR")
8.59
>>> measured_value("Caninized anti-TGFβ1,2,3 antibody VH3.6 - VL2 (antibody, V domains shown) VH: EVQLVQSAAEVKKPGASVKVSCKTSGYIFISNVISWVRQAPGQGLEWMGGVIPIVDIANYAQRFKGRVTITADESTSTTYMELSSLRSEDTAVYYCASTLGLVLDAMDYWGQGTLVTVSS VL: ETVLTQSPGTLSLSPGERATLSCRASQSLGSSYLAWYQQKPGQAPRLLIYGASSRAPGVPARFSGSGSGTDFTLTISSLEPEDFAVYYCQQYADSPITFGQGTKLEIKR")
8.36
>>> measured_value("Caninized anti-TGFβ1,2,3 antibody VH4.7 - VL2 (antibody, V domains shown) VH: QVQLVQSGAEVKKPGSSVKVSCKASGYTFSSNVISWVRQAPGKGLQWVGGVIPIVDIANYAQRFKGRVTITADESTSTTYMELSSLRSEDTAVYYCASTLGLVLDAMDYWGQGTLVTVSS VL: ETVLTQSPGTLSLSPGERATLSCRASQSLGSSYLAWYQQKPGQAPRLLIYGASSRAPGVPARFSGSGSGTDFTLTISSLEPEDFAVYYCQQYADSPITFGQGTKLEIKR")
8.58
>>> measured_value("Caninized anti-TGFβ1,2,3 antibody VH5.10 - VL3 (antibody, V domains shown) VH: EVQLVESGGDLVKPGGSLRLSCVASGFTFSSNVISWVRQAPGQGLEWMGGVIPIVDIANYAQRFKGRVTLTADTSTNTVYMELSNLRTEDTAVYYCARTLGLVLDAMDYWGQGTLVTVSS VL: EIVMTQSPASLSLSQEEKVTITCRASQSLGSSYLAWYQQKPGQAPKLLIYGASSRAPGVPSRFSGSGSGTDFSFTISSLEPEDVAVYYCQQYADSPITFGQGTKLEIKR")
8.28
>>> measured_value("Felinized anti-TGFβ1,2,3 antibody VH3.8 - VL7 (antibody, V domains shown) VH: QVQLVQSGAEVKKPGSSVKVSCKASGYTFSSNVISWVRQAPGKGLQWVAGVIPIVDIANYAQRFKGRFTISIDNSKNTLYLQMNSLKTEDTATYYCASTLGLVLDAMDYWGQGTLVTVSS VL: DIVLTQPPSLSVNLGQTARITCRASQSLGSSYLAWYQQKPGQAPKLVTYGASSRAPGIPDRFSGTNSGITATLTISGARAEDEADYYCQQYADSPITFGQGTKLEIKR")
8.51
>>> measured_value("Felinized anti-TGFβ1,2,3 antibody VH3.2 - VL8 (antibody, V domains shown) VH: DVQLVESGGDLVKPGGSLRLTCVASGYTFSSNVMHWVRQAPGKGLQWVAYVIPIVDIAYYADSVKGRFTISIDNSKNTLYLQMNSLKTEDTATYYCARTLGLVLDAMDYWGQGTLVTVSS VL: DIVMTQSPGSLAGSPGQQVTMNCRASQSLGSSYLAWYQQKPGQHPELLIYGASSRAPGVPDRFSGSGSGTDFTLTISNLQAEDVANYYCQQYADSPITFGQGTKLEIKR")
9.01
>>> measured_value("Caninized anti-TGFβ1,2,3 antibody VH4.11 - VL2 (antibody, V domains shown) VH: QVQLVQSGAEVKKPGSSVKVSCKASGYTFSSNVISWVRQAPGKGLQWVGGVIPIVDIANYAQRFKGRVTLTADTSTNTVYMELSNLRTEDTAVYYCARTLGLVLDAMDYWGQGTLVTVSS VL: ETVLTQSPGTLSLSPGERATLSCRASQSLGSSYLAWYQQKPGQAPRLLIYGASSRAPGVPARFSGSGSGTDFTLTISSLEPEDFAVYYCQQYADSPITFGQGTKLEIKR")
8.30
>>> measured_value("Caninized anti-TGFβ1,2,3 antibody VH3.5 - VL2 (antibody, V domains shown) VH: EVQLVQSAAEVKKPGASVKVSCKTSGYIFISNVISWVQQAPGAGLEWMGGVIPIVDIANYAQRFKGRVTLTADTSTNTVYMELSNLRTEDTAVYYCASTLGLVLDAMDYWGQGTLVTVSS VL: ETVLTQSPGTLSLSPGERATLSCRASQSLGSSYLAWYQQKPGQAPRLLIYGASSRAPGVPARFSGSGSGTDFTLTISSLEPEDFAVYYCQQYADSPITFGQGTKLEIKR")
8.36
>>> measured_value("Caninized anti-TGFβ1,2,3 antibody VH5.6 - VL2 (antibody, V domains shown) VH: EVQLVESGGDLVKPGGSLRLSCVASGFTFSSNVISWVRQAPGQGLEWMGGVIPIVDIANYAQRFKGRVTITADESTSTTYMELSSLRSEDTAVYYCASTLGLVLDAMDYWGQGTLVTVSS VL: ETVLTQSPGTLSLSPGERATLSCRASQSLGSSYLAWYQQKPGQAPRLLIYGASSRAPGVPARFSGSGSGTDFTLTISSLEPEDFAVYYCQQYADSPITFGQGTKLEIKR")
8.43
